Entries and their % of Max VEGF KDR pTyr Activity (at 133 nM antibody concentration), N = 1
molecular target: KDR (human, UniProt P35968 20-1356); assay: cell-based or functional assay
Sequence (P35968 20-1356): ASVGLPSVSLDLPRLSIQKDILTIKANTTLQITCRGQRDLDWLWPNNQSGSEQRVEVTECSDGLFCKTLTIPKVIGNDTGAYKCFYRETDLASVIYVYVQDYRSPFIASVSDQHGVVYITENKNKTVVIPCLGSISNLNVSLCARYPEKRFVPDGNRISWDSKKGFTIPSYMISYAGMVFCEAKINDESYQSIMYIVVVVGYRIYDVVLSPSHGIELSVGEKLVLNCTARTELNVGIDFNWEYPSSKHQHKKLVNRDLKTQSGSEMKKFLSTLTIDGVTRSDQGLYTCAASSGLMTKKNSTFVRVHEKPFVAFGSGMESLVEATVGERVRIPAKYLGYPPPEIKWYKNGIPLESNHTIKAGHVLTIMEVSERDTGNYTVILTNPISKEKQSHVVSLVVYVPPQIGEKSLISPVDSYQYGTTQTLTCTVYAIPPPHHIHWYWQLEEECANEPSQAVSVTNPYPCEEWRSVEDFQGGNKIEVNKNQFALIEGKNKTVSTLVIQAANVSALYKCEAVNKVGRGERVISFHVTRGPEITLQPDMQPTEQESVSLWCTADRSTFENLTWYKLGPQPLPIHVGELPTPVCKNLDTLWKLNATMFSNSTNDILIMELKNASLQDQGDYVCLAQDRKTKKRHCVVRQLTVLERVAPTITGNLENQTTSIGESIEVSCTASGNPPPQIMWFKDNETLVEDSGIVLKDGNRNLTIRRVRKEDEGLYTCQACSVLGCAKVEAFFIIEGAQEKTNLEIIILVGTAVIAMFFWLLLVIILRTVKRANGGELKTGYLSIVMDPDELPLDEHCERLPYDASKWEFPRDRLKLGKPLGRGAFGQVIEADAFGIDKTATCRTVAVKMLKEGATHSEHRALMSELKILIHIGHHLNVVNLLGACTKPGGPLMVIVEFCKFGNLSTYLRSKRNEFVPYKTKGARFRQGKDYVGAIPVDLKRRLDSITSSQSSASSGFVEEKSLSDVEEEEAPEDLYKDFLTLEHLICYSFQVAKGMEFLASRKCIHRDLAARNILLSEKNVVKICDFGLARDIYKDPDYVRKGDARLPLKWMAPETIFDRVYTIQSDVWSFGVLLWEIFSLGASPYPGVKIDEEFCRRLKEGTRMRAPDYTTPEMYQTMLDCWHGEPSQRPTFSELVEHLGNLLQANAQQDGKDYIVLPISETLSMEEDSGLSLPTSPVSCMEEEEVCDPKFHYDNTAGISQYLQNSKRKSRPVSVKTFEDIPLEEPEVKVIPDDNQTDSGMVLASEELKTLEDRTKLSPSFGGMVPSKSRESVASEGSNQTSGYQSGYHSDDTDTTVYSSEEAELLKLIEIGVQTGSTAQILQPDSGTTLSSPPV
API: value field is a number in %; no unit string.

Quick note, % of Max VEGF KDR pTyr Activity (at 133 nM antibody concentration), N = 1 for 24C9 (antibody, V domains shown) VH: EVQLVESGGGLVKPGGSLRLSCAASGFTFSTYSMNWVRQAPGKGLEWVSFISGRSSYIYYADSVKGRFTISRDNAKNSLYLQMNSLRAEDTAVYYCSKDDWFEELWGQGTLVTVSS VL: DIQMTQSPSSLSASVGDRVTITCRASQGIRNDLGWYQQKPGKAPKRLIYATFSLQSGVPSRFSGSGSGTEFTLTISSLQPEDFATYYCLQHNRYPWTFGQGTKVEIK landed at 13

Quick note, % of Max VEGF KDR pTyr Activity (at 133 nM antibody concentration), N = 1 for 33B1 (antibody, V domains shown) VH: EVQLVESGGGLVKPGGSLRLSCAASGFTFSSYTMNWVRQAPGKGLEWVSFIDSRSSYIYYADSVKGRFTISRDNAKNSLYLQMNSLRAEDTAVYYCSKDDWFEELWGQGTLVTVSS VL: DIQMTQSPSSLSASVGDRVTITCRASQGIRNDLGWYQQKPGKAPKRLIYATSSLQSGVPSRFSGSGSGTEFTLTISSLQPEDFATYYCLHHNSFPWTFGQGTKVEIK landed at 7

Quick note, % of Max VEGF KDR pTyr Activity (at 133 nM antibody concentration), N = 1 for 29H3 (antibody, V domains shown) VH: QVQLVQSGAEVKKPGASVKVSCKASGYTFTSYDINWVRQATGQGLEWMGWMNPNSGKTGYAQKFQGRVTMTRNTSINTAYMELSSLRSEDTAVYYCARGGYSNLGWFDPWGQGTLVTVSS VL: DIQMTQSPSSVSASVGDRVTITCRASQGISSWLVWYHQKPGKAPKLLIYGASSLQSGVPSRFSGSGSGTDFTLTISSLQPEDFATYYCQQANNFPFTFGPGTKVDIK landed at 20

Quick note, % of Max VEGF KDR pTyr Activity (at 133 nM antibody concentration), N = 1 for 32G7 (antibody, V domains shown) VH: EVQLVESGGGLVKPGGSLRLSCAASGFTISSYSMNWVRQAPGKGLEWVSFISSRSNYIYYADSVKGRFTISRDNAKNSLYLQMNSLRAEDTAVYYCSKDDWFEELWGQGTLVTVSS VL: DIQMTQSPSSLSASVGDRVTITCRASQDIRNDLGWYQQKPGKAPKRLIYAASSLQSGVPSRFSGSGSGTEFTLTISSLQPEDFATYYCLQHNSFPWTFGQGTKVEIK landed at 11
